Recorded viability index values for a group of compounds are listed next.
test system: Plasmodium falciparum NF54 gametocytes; test: viability index relative to DMSO control (fraction); higher = less gametocyte killing; details: gametocyte stage: Stage IV viability index; 12.5 µM; incubation time: 72 h
Just the number, please, no unit after it.

Consider the reported viability index for these compounds:
Cc1cc(C=C2SC(=Nc3ccccc3)N(C3CCCC3)C2=O)c(C)n1-c1ccc(Cl)cc1
0.894
Cc1ccc(C(=O)c2oc3ccc4c(C)cc(=O)oc4c3c2C)cc1
1.04
COc1ccc2c(c1OC)C(=O)N1c3ccccc3N=C(c3ccc(C)cc3)CC21 (centres undefined)
0.94
CCN(CC)S(=O)(=O)c1ccc(-c2csc(Nc3ccc(C)c(C)c3)n2)cc1
0.733
CCN(CC)CCCNc1ccnc2cc3ccccc3cc12
0.946
CC(NCc1ccccc1)c1cc(Cl)ccc1O (centres undefined)
0.574
CCN(CC)c1ccc(NC(=O)c2cccs2)cc1
0.936
CCOc1ccc2nc(C)cc(Nc3ccc(Br)cc3)c2c1
0.851

// query Supply viability index value. Item: CN(C)c1ccc(N2C(N)=NC(N)=NC2(C)C)cc1
// result 1.05

// query Supply viability index value. Item: CCCN(CCC)CCCNC(=O)c1cc2c(-c3ccc(OC)c(OC)c3)nn(C)c2s1
// result 0.954

// query Supply viability index value. Item: CCC(C)NCC(O)(c1ccc(Cl)cc1)c1ccc(Cl)cc1 (centres undefined)
// result 0.584

====

Recorded viability index values for a group of molecules are listed next.
tested on: Plasmodium falciparum NF54 gametocytes; assay: viability index relative to DMSO control (fraction); higher = less gametocyte killing; details: gametocyte stage: Stage II viability index; 12.5 µM; incubation time: 72 h
Just the number, please, no unit after it.

Consider the reported viability index for these molecules:
CC(C)(C)c1ccc(C(=O)Nc2nc3ccccc3s2)cc1
0.834
CC(=O)c1sc(NC(=O)Nc2ccc(C)cc2C)nc1C
0.455
COc1ccc(CCn2c(=N)c(C(=O)NCc3cccnc3)cc3c(=O)n4cccc(C)c4nc32)cc1
0.611
COc1ccc(C2c3ccc4ccccc4c3Oc3ncn(CCCN(C)C)c(=N)c32)cc1 (stereo not drawn)
0.0483
Cc1cc(C)cc(Nc2cc(C)nc3nc(C(F)(F)F)nn23)c1
1.07
O=C(Nc1ccc(Cl)c(Cl)c1)Nc1ccc(Cl)c(Cl)c1
0.0241
CC(C)CCNCC(O)Cn1c2ccccc2c2ccccc21 (stereo not drawn)
0.0691
CCOc1ccc(CCNC(=O)c2cccs2)cc1OCC
0.896

// query Supply viability index value. Item: CC(C)c1ccc(CNCC(O)c2ccccc2)cc1 (stereo not drawn)
// result 0.118

// query Supply viability index value. Item: CCN(CC)c1ccc(NC(=O)c2cccs2)cc1
// result 0.659

====

system: Plasmodium falciparum NF54 gametocytes; assay: viability index relative to DMSO control (fraction); higher = less gametocyte killing; conditions: gametocyte stage: Stage I viability index; 12.5 µM; incubation time: 72 h
Criterion: viability index strictly less than 0.3. Met: Condition met. Not met: Condition not met.

// query Is viability index strictly under 0.3 for the entry CCCCCCC(O)(c1ccc(F)cc1)C(CN1CCOCC1)c1ccccc1 (stereo not given) ?
// result Condition not met

====

test system: Plasmodium falciparum NF54 gametocytes; assay: viability index relative to DMSO control (fraction); higher = less gametocyte killing; settings: gametocyte stage: Stage II viability index; 12.5 µM; incubation time: 72 h
Recorded viability index values for a group of compounds are listed next.
Just the number, please, no unit after it.

O=C(Nc1ccc(CN2CCOCC2)cc1)c1ccc(-c2cc(Cl)ccc2Cl)o1
0.64
COc1ccc(NC(=O)C2c3ccccc3C(=O)N(CC(C)C)C2c2cccs2)cc1Cl (stereo unspecified)
0.00483
CCN1CCN(c2cc(C)c3cc(NC(=O)c4ccc(OC)c(OC)c4)ccc3n2)CC1
0.677
O=C(c1ccccc1F)N(Cc1ccc(Cl)cc1)c1ccccn1
0.955
CN1c2ccccc2N(C)C1c1ccc2c(c1)OCO2
0.862
COc1ccc(C(C)=O)cc1N1C(=O)C2C(C1=O)C1(c3ccccc3)C(=O)C2(c2ccccc2)C(c2ccc(C)cc2)=C1c1ccc(C)cc1 (stereo unspecified)
0.933

// query Provide viability index, recorded with Plasmodium falciparum NF54 gametocytes, of Oc1ccccc1CN1CCN(C(c2ccccc2)c2ccccc2)CC1
// result 0.102

// query Provide viability index, recorded with Plasmodium falciparum NF54 gametocytes, of O=C(Nc1ccc(CN2CCOCC2)cc1)c1ccc(-c2ccc(Br)cc2)o1
// result 0.543

// query Provide viability index, recorded with Plasmodium falciparum NF54 gametocytes, of Cc1cc(N2CCCC2)nc(Nc2ccc(NC(=O)CCc3ccccc3)cc2)n1
// result 0.0508

====

tested on: Plasmodium falciparum NF54 gametocytes; assay: viability index relative to DMSO control (fraction); higher = less gametocyte killing; details: gametocyte stage: Stage V viability index; 12.5 µM; incubation time: 72 h
Criterion: viability index strictly less than 0.7. Met: Condition met. Not met: Condition not met.

COc1ccc(C2c3ccc4ccccc4c3Oc3ncn(CCCN(C)C)c(=N)c32)cc1 (stereo unspecified)
Condition met
Fc1ccc2[nH]c3c(NCCCN4CCOCC4)ncnc3c2c1
Condition not met
O=C(Nc1ccccc1O)c1ccc(-c2ccc(Cl)cc2Cl)o1
Condition not met
Cc1ccc(OCCCCCCNCCO)c(C)c1
Condition not met
CCOc1ccc(Nc2c3ccccc3nc3ccccc23)cc1
Condition met

// query Is viability index strictly under 0.7 for the entry O=C1CC(O)(C(F)(F)C(F)(F)F)Oc2ccccc21 (stereo unspecified) ?
// result Condition not met

// query Is viability index strictly under 0.7 for the entry COc1cc(-c2nc(-c3ccc(Sc4ccccc4)cc3)c(-c3ccccc3)[nH]2)cc(OC)c1O ?
// result Condition met

// query Is viability index strictly under 0.7 for the entry OC(CNCC1CCCO1)Cn1c2ccc(Cl)cc2c2cc(Cl)ccc21 (stereo unspecified) ?
// result Condition met

// query Is viability index strictly under 0.7 for the entry COc1ccc2c(c1OC)C(=O)N1c3ccccc3N=C(c3ccc(C)cc3)CC21 (stereo unspecified) ?
// result Condition not met

// query Is viability index strictly under 0.7 for the entry O=C(Nc1ccc(C23CC4CC(CC(c5ccccc5)(C4)C2)C3)cc1)c1cccs1 ?
// result Condition not met

// query Is viability index strictly under 0.7 for the entry CCOc1ccc(C=Cc2nc(=O)c3ccccc3o2)cc1 ?
// result Condition met

====

Recorded viability index values for a group of molecules are listed next.
test system: Plasmodium falciparum NF54 gametocytes; experiment: viability index relative to DMSO control (fraction); higher = less gametocyte killing; settings: gametocyte stage: Stage II viability index; 12.5 µM; incubation time: 72 h
Just the number, please, no unit after it.

Consider the reported viability index for these molecules:
Cc1[nH]c(-c2ccc(F)cc2)cc1C(=O)NC1CCN(Cc2ccccc2)CC1
0.502
CCOC(=O)c1c(C)n(-c2ccc(Cl)cc2)c2ccc(OC(=O)C=Cc3ccccc3)cc12
0.792

Now for another entry.
// query Provide viability index, recorded with Plasmodium falciparum NF54 gametocytes, of Clc1ccc2c(N3CCCC3)ccnc2c1
// result 0.491

====

Recorded viability index values for a group of compounds are listed next.
system: Plasmodium falciparum NF54 gametocytes; experiment: viability index relative to DMSO control (fraction); higher = less gametocyte killing; settings: gametocyte stage: Stage V viability index; 12.5 µM; incubation time: 72 h
Just the number, please, no unit after it.

CCOC(=O)C1(Cc2ccccc2)CCN(Cc2cccc(OC)c2O)CC1
0.649

// query Supply viability index value. Item: CN1CCN(c2ncnc3c2[nH]c2ccc(Cl)cc23)CC1
// result 0.935

// query Supply viability index value. Item: COc1ccc(Nc2nc(NCc3ccccc3)c3ccccc3n2)cc1
// result 0.286

// query Supply viability index value. Item: O=C(NCCCN1CCC(N2CCCCC2)CC1)C1=Cc2cc(Br)ccc2OC1
// result 0.312

====

tested on: Plasmodium falciparum NF54 gametocytes; assay: viability index relative to DMSO control (fraction); higher = less gametocyte killing; conditions: gametocyte stage: Stage III viability index; 12.5 µM; incubation time: 72 h
Measured Attribute: viability index
Just the number, please, no unit after it.

O=C(NC1CCN(Cc2ccccc2)CC1)c1cc(-c2ccncc2)nc2ccc(Cl)cc12
1.08
COCCN(C(=O)Cc1cccs1)C(C(=O)NCc1ccc(OC)cc1)c1ccc(C(C)C)cc1 (stereo unspecified)
1.18
COc1cccc(-c2nn(C)c3sc(C(=O)NCCN4CCN(c5ccccc5F)CC4)cc23)c1
0.777
O=C(Cc1ccccc1)NC(c1ccc(Cl)cc1)c1c(O)ccc2ccccc12 (stereo unspecified)
0.631
Cn1c(=O)n(C)c2cc(CNCCNc3ccnc4cc(Cl)ccc34)ccc21
0.597
COC(=O)c1ccc(C2C3=C(O)CC(c4ccc(F)cc4)CC3=Nc3ccccc3N2C(=O)c2ccccc2)cc1 (stereo unspecified)
0.0149

// query Provide viability index, recorded with Plasmodium falciparum NF54 gametocytes, of O=C(NC1CCCCC1)C(c1cccs1)N(CCc1ccccc1)C(=O)c1ccco1 (stereo unspecified)
// result 1

// query Provide viability index, recorded with Plasmodium falciparum NF54 gametocytes, of CCCn1c(=N)c(C(=O)NC2CCCCC2)cc2c(=O)n3cccc(C)c3nc21
// result 1.06

// query Provide viability index, recorded with Plasmodium falciparum NF54 gametocytes, of OC(Cn1nnc2ccccc21)Cn1c2ccc(Br)cc2c2cc(Br)ccc21 (stereo unspecified)
// result 1.04

// query Provide viability index, recorded with Plasmodium falciparum NF54 gametocytes, of CC1CCN(Cc2ccc(NC(=O)c3cc4ccc5cccnc5c4[nH]3)cc2)CC1
// result 0.902

// query Provide viability index, recorded with Plasmodium falciparum NF54 gametocytes, of Oc1ccc(-c2nc(-c3ccc4oc5ccc(-c6[nH]c(-c7ccc(O)cc7)nc6-c6ccccc6)cc5c4c3)c(-c3ccccc3)[nH]2)cc1
// result 0

// query Provide viability index, recorded with Plasmodium falciparum NF54 gametocytes, of O=c1nc(C=Cc2ccc(Cl)cc2)oc2ccccc12
// result 1
